Assay: E-2.3 inhalative, oral and intravenous single doses in healthy male subjects: plasma concentrations and lung deposition
Type: in vivo, human
Conditions: male, human, plasma, inhaled, 1000 μg, healthy male subjects, single 1000 μg inhale, N = 16; 1.5 h after dose; read-out: Geometric mean of plasma concentrations
Outcome measure: concentration at 1.5 h
Field: value (include unit after the number)

Task: Given the compound O=C(O)c1ccc(CCN(CCc2ccccc2OCc2ccc(-c3ccc(C(F)(F)F)cc3)cc2Cl)[C@H]2CCCc3nc(C(=O)O)ccc32)cc1 [example 4] , what is its reported concentration at 1.5 h?
Output: 1.16 ng/mL

---

Experiment: E-2.3 inhalative, oral and intravenous single doses in healthy male subjects: plasma concentrations and lung deposition
Assay type: in vivo, human
Conditions: male, human, plasma, inhaled, 1000 μg, healthy male subjects, single 1000 μg inhale + Charcoal Block, N = 16; 1.5 h after dose; read-out: Geometric mean of plasma concentrations
Outcome measure: concentration at 1.5 h (ng/mL)
Write the answer as a number in ng/mL, unit excluded.

Task: Given the compound "O=C(O)c1ccc(CCN(CCc2ccccc2OCc2ccc(-c3ccc(C(F)(F)F)cc3)cc2Cl)[C@H]2CCCc3nc(C(=O)O)ccc32)cc1" , what is its reported concentration at 1.5 h?
Output: 0.9

---

Test: E-2.3 inhalative, oral and intravenous single doses in healthy male subjects: plasma concentrations and lung deposition
Assay type: in vivo, human
Settings: male, human, plasma, po, 1000 μg, healthy male subjects, single 1000 μg oral, N = 16; 0.75 h after dose; read-out: Geometric mean of plasma concentrations
Outcome measure: concentration at 0.75 h (ng/mL)
Write the answer as a number in ng/mL, unit excluded.

Task: Given the compound O=C(O)c1ccc(CCN(CCc2ccccc2OCc2ccc(-c3ccc(C(F)(F)F)cc3)cc2Cl)[C@H]2CCCc3nc(C(=O)O)ccc32)cc1 [example 4] , what is its reported concentration at 0.75 h?
Output: 5.28

---

Assay: E-2.3 inhalative, oral and intravenous single doses in healthy male subjects: plasma concentrations and lung deposition
Type: in vivo, human
Conditions: male, human, plasma, po, 1000 μg, healthy male subjects, single 1000 μg oral, N = 16; 3 h after dose; read-out: Geometric mean of plasma concentrations
Outcome measure: concentration at 3 h
Field: value (include unit after the number)

Task: Given the compound O=C(O)c1ccc(CCN(CCc2ccccc2OCc2ccc(-c3ccc(C(F)(F)F)cc3)cc2Cl)[C@H]2CCCc3nc(C(=O)O)ccc32)cc1 [example 4] , what is its reported concentration at 3 h?
Output: 1.6 ng/mL

---

Assay: Caco-2 permeability test
Assay type: in vitro ADME, human
Settings: human; Caco-2, 2.4 μM, 2 h at 37° C.; read-out: Papp B − A (mean +/− SD)
Outcome measure: Papp B→A at 2 h, 2.4 μM (×10⁻⁶ cm/s)
Write the answer as a number in ×10⁻⁶ cm/s, unit excluded.

Task: Given the compound COC(=O)N(C)c1c(N)nc(-c2nn(Cc3ccccc3F)c3ncccc23)nc1N [Comparative example 2 (Riociguat)] , what is its reported Papp B→A at 2 h, 2.4 μM?
Output: 36.7

---

Experiment: E-2.3 inhalative, oral and intravenous single doses in healthy male subjects: plasma concentrations and lung deposition
Format: in vivo, human
Settings: male, human, plasma, po, 1000 μg, healthy male subjects, single 1000 μg oral, N = 16; 1 h after dose; read-out: Geometric mean of plasma concentrations
Outcome measure: concentration at 1 h (ng/mL)
Write the answer as a number in ng/mL, unit excluded.

Task: Given the molecule "O=C(O)c1ccc(CCN(CCc2ccccc2OCc2ccc(-c3ccc(C(F)(F)F)cc3)cc2Cl)[C@H]2CCCc3nc(C(=O)O)ccc32)cc1" , what is its reported concentration at 1 h?
Output: 5.68

---

Experiment: E-2.3 inhalative, oral and intravenous single doses in healthy male subjects: plasma concentrations and lung deposition
Type: in vivo, human
Conditions: male, human, plasma, inhaled, 1000 μg, healthy male subjects, single 1000 μg inhale + Charcoal Block, N = 16; 0 h after dose; heading: Geometric mean of plasma concentrations
Outcome measure: concentration at 0 h

Task: Given the compound "O=C(O)c1ccc(CCN(CCc2ccccc2OCc2ccc(-c3ccc(C(F)(F)F)cc3)cc2Cl)[C@H]2CCCc3nc(C(=O)O)ccc32)cc1" , what is its reported concentration at 0 h?
Output: < 0.05 ng/mL

---

Assay: E-2.3 inhalative, oral and intravenous single doses in healthy male subjects: plasma concentrations and lung deposition
Assay type: in vivo, human
Settings: male, human, plasma, inhaled, 1000 μg, healthy male subjects, single 1000 μg inhale, N = 16; 32 h after dose; read-out: Geometric mean of plasma concentrations
Outcome measure: concentration at 32 h

Task: Given the molecule "O=C(O)c1ccc(CCN(CCc2ccccc2OCc2ccc(-c3ccc(C(F)(F)F)cc3)cc2Cl)[C@H]2CCCc3nc(C(=O)O)ccc32)cc1" , what is its reported concentration at 32 h?
Output: 0.0698 ng/mL

---

Assay: E-2.3 inhalative, oral and intravenous single doses in healthy male subjects: plasma concentrations and lung deposition
Format: in vivo, human
Settings: male, human, plasma, inhaled, 1000 μg, healthy male subjects, single 1000 μg inhale, N = 16; 0 h after dose; heading: Geometric mean of plasma concentrations
Outcome measure: concentration at 0 h

Task: Given the molecule O=C(O)c1ccc(CCN(CCc2ccccc2OCc2ccc(-c3ccc(C(F)(F)F)cc3)cc2Cl)[C@H]2CCCc3nc(C(=O)O)ccc32)cc1 [example 4] , what is its reported concentration at 0 h?
Output: < 0.05 ng/mL

---

Assay: E-2.3 inhalative, oral and intravenous single doses in healthy male subjects: plasma concentrations and lung deposition
Type: in vivo, human
Settings: male, human, plasma, po, 1000 μg, healthy male subjects, single 1000 μg oral, N = 16; 0.25 h after dose; read-out: Geometric mean of plasma concentrations
Outcome measure: concentration at 0.25 h (ng/mL)
Write the answer as a number in ng/mL, unit excluded.

Task: Given the compound O=C(O)c1ccc(CCN(CCc2ccccc2OCc2ccc(-c3ccc(C(F)(F)F)cc3)cc2Cl)[C@H]2CCCc3nc(C(=O)O)ccc32)cc1 [example 4] , what is its reported concentration at 0.25 h?
Output: 0.777

---

Assay: E-2.3 inhalative, oral and intravenous single doses in healthy male subjects: plasma concentrations and lung deposition
Type: in vivo, human
Conditions: male, human, plasma, iv, 100 μg, healthy male subjects, 100 μg IV infusion over 2 h, N = 15; 3 h after dose; read-out: Geometric mean of plasma concentrations
Outcome measure: concentration at 3 h (ng/mL)
Write the answer as a number in ng/mL, unit excluded.

Task: Given the molecule "O=C(O)c1ccc(CCN(CCc2ccccc2OCc2ccc(-c3ccc(C(F)(F)F)cc3)cc2Cl)[C@H]2CCCc3nc(C(=O)O)ccc32)cc1" , what is its reported concentration at 3 h?
Output: 0.132

---

Test: E-2.3 inhalative, oral and intravenous single doses in healthy male subjects: plasma concentrations and lung deposition
Type: in vivo, human
Conditions: male, human, plasma, po, 1000 μg, healthy male subjects, single 1000 μg oral, N = 16; 2 h after dose; read-out: Geometric mean of plasma concentrations
Outcome measure: concentration at 2 h (ng/mL)
Write the answer as a number in ng/mL, unit excluded.

Task: Given the compound "O=C(O)c1ccc(CCN(CCc2ccccc2OCc2ccc(-c3ccc(C(F)(F)F)cc3)cc2Cl)[C@H]2CCCc3nc(C(=O)O)ccc32)cc1" , what is its reported concentration at 2 h?
Output: 3.32

---

Experiment: E-2.3 inhalative, oral and intravenous single doses in healthy male subjects: plasma concentrations and lung deposition
Type: in vivo, human
Details: male, human, plasma, po, 1000 μg, healthy male subjects, single 1000 μg oral, N = 16; 0 h after dose; heading: Geometric mean of plasma concentrations
Method: E-2.3 Inhalative, Oral and Intravenous Administration of Single Doses of sGC an Activator in Healthy Male Subjects—Lung Deposition Healthy white male subjects, aged 18 to 45 years with a body mass index (BMI) above/equal 18.5 and below/equal 29.9 kg/m^2 were treated in a clinical phase I study with a single inhaled dose of 1000 μg (nominal dose), a single inhaled dose of 1000 μg (nominal dose)+charcoal block, a single oral dose of 1000 μg and a single infusion over 2 h of 100 μg of example 4. […]
Outcome measure: concentration at 0 h

Task: Given the compound "O=C(O)c1ccc(CCN(CCc2ccccc2OCc2ccc(-c3ccc(C(F)(F)F)cc3)cc2Cl)[C@H]2CCCc3nc(C(=O)O)ccc32)cc1" , what is its reported concentration at 0 h?
Output: < 0.05 ng/mL

---

Assay: E-2.3 inhalative, oral and intravenous single doses in healthy male subjects: plasma concentrations and lung deposition
Type: in vivo, human
Details: male, human, plasma, po, 1000 μg, healthy male subjects, single 1000 μg oral, N = 16; 6 h after dose; read-out: Geometric mean of plasma concentrations
Outcome measure: concentration at 6 h (ng/mL)
Write the answer as a number in ng/mL, unit excluded.

Task: Given the compound "O=C(O)c1ccc(CCN(CCc2ccccc2OCc2ccc(-c3ccc(C(F)(F)F)cc3)cc2Cl)[C@H]2CCCc3nc(C(=O)O)ccc32)cc1" , what is its reported concentration at 6 h?
Output: 0.424
